Quick list: glycan array binding signal (z-score) per entry.
tested on: GalNAc4S6S(b1-4)GlcNAc
run description: glycan array binding signal (z-score within array); higher = stronger binding
study conditions: glycan notation: IUPAC condensed, linker removed
Many of the other results were omitted from the sample, so the strongest signals are more common in it than they were.
Reply: number alone, nothing else.

Take a look at these entries with their results.
* FimA-N2 (Actinomyces oris) (protein) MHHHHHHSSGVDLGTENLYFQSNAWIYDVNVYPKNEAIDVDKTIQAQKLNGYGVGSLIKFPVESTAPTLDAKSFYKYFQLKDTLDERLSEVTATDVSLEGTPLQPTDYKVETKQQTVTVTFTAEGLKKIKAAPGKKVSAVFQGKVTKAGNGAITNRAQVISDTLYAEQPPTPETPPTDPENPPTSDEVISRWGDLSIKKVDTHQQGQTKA | -0.331
* Aap arpt (Staphylococcus epidermidis) (protein) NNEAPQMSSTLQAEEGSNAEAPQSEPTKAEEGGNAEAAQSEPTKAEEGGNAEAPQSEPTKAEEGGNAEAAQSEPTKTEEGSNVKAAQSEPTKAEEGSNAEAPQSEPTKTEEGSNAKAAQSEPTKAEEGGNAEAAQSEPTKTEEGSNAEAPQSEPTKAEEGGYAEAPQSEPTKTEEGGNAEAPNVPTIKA | 1.06
* Epa1to9 (Candida glabrata) (protein) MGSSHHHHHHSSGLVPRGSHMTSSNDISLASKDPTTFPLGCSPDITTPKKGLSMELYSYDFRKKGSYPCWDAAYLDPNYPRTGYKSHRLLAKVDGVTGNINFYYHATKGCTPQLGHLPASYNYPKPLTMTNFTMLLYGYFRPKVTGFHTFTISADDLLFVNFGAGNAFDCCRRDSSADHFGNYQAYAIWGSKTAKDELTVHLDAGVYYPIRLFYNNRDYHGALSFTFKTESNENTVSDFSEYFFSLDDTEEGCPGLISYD | -0.346
* Wzz (Escherichia coli) (protein) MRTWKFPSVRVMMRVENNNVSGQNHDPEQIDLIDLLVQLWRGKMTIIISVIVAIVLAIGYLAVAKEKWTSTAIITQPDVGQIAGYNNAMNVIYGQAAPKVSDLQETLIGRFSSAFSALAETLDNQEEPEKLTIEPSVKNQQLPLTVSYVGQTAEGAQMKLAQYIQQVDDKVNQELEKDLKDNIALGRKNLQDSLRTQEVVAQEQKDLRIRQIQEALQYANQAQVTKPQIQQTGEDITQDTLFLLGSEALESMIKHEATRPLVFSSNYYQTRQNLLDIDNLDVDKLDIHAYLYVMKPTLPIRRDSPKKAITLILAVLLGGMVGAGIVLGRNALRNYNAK | 5.1

Ask: Recorded glycan array binding signal (z-score) for SAOUHSC 02783 (Staphylococcus aureus), Q5HD69 (protein) MIHSKKLTLGICLVLLIILIVGYVIMTKTNGRNAQIKDTFNQTLKLYPTKNLDDFYDKEGFRDQEFKKGDKGTWIVNSEMVIEPKGKDMETRGMVLYINRNTRTTKGYYFISEMTDDSNGRPKDDEKRYPVKMEHNKIIPTKPLPNDKLKKEIENFKFFVQYGNFKDINDYKDGDISYNPNVPSYSAKYQLNNDDYNVQQLRKRYDIPTKQAPKLLLKGDGDLKGSSVGSRSLEFTFVENKEENIYFTDSVQYTPSEDTRYESN , please?
Reply: -0.245

Ask: Record: Epa2 (Candida glabrata) (protein) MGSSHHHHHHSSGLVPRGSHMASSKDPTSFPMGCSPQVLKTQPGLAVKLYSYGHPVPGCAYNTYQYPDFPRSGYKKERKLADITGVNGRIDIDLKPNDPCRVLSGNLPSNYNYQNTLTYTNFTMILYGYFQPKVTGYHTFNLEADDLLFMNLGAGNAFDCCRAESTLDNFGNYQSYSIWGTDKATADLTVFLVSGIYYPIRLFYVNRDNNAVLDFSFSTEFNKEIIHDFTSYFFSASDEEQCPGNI
Reply: 0.176

Ask: Now the binder Flo1 (Saccharomyces cerevisiae), P32768 (protein) SGATEACLPAGQRKSGMNINFYQYSLKDSSTYSNAAYMAYGYASKTKLGSVGGQTDISIDYNIPCVSSSGTFPCPQEDSYGNWGCKGMGACSNSQGIAYWSTDLFGFYTTPTNVTLEMTGYFLPPQTGSYTFKFATVDDSAILSVGGATAFNCCAQQQPPITSTNFTIDGIKPWGGSLPPNIEGTVYMYAGYYYPMKVVYSNAVSWGTLPISVTLPDGTTVSDDFEGYVYSFDDDLSQSNCTVPDPSNY
Reply: 3.28
